Test system: Trichophyton mentagrophytes
Test: Antifungal activity against Trichophyton mentagrophytes after 16 hrs by microtiter broth dilution method
Type: functional

| testSmiles | MIC |
| --- | --- |
| CCOC(=O)c1csc(/N=C/c2cc(/C=C/C(=O)c3ccc(C)cc3)cc(C(C)C)c2O)n1 | > 108 µM |
| COc1ccc(C(=O)/C=C/c2cc(/C=N/c3nc(-c4ccc(OC)cc4)cs3)c(O)c(C(C)(C)C)c2)cc1 | > 94.9 µM |
| CCOC(=O)c1csc(/N=C/c2cc(/C=C/C(=O)c3cccs3)cc(C(C)C)c2O)n1 | > 110 µM |
| OC(Cn1cncn1)(Cn1cncn1)c1ccc(F)cc1F | 22.1 µM |

----------
Test system: Staphylococcus aureus
Experiment: Antibacterial activity against […] Staphylococcus aureus ATCC 29213 after 16 hrs by microtiter broth dilution method
Format: functional
Conditions: ATCC 29213, 16 h
Each record here notes measured MIC.

| testSmiles | readoutUnit | relation | MIC |
| --- | --- | --- | --- |
| C[C@@H]1[C@H](O)[C@@H](C)/C=C/C=C/C=C/C=C/C=C/C=C/C=C/[C@H](O[C@@H]2O[C@H](C)[C@@H](O)[C@H](N)[C@@H]2O)C[C@@H]2O[C@](O)(C[C@@H](O)C[C@@H](O)[C@H](O)CC[C@@H](O)C[C@@H](O)CC(=O)O[C@H]1C)C[C@H](O)[C@H]2C(=O)O | µM | > | 54.1 |
| COc1ccc(C(=O)/C=C/c2cc(/C=N/c3nc(-c4ccc(OC)cc4)cs3)c(O)c(C(C)(C)C)c2)cc1 | µM | = | 11.9 |
| CCn1cc(C(=O)O)c(=O)c2cc(F)c(N3CCNCC3)cc21 | µM | = | 1 |
| OC(Cn1cncn1)(Cn1cncn1)c1ccc(F)cc1F | µM | > | 34.5 |
| COc1ccc(-c2csc(/N=C/c3cc(/C=C/C(=O)c4cccs4)cc(C(C)(C)C)c3O)n2)cc1OC | µM | = | 11.7 |
| CCCc1cc(/C=C/C(=O)c2ccco2)cc(/C=N/c2nc(C(=O)OCC)cs2)c1O | µM | = | 51.2 |
| COc1ccc(-c2csc(/N=C/c3cc(/C=C/C(=O)c4ccc(C)cc4)cc(C(C)(C)C)c3O)n2)cc1 | µM | = | 12.2 |
| CCOC(=O)c1csc(/N=C/c2cc(/C=C/C(=O)c3cccs3)cc(C(C)(C)C)c2O)n1 | µM | = | 6.7 |
| CN[C@H](CC(C)C)C(=O)N[C@H]1C(=O)N[C@@H](CC(N)=O)C(=O)N[C@H]2C(=O)N[C@H]3C(=O)N[C@H](C(=O)N[C@H](C(=O)O)c4cc(O)cc(O)c4-c4cc3ccc4O)[C@H](O)c3ccc(c(Cl)c3)Oc3cc2cc(c3O[C@@H]2O[C@H](CO)[C@@H](O)[C@H](O)[C@H]2O[C@H]2C[C@](C)(N)[C@H](O)[C@H](C)O2)Oc2ccc(cc2Cl)[C@H]1O | µM | = | 1.2 |
| CCOC(=O)c1csc(/N=C/c2cc(/C=C/C(=O)c3ccco3)cc(C(C)(C)C)c2O)n1 | µM | = | 13.8 |
| CCOC(=O)c1csc(/N=C/c2cc(/C=C/C(=O)c3ccc(OC)cc3)cc(C(C)C)c2O)n1 | µM | = | 26.1 |
| CCOC(=O)c1csc(/N=C/c2cc(/C=C/C(=O)c3ccc(OC)cc3)cc(C(C)(C)C)c2O)n1 | µM | = | 12.7 |
| CCOC(=O)c1csc(/N=C/c2cc(/C=C/C(=O)c3cccs3)cc(C(C)C)c2O)n1 | µM | = | 27.5 |
| COc1ccc(-c2csc(/N=C/c3cc(/C=C/C(=O)c4ccc(C)cc4)cc(C(C)(C)C)c3O)n2)cc1OC | µM | = | 5.8 |
| COc1ccc(C(=O)/C=C/c2cc(/C=N/c3nc(-c4ccc(OC)c(OC)c4)cs3)c(O)c(C(C)(C)C)c2)cc1 | µM | = | 11.2 |
| CCOC(=O)c1csc(/N=C/c2cc(/C=C/C(=O)c3ccc(C)cc3)cc(C(C)C)c2O)n1 | µM | = | 13.5 |
| CCOC(=O)c1csc(/N=C/c2cc(/C=C/C(=O)c3ccc(C)cc3)cc(C(C)(C)C)c2O)n1 | µM | = | 6.5 |

----------
Listing of recorded MIC by entry.
Tested on: Cryptococcus neoformans
Test: Antifungal activity against Cryptococcus neoformans after 16 hrs by microtiter broth dilution method
Format: functional
measuredQuantity: MIC

| testSmiles | measured |
| --- | --- |
| COc1ccc(-c2csc(/N=C/c3cc(/C=C/C(=O)c4ccc(C)cc4)cc(C(C)(C)C)c3O)n2)cc1OC | > 92.5 µM |
| COc1ccc(-c2csc(/N=C/c3cc(/C=C/C(=O)c4cccs4)cc(C(C)(C)C)c3O)n2)cc1OC | > 93.9 µM |
| COc1ccc(C(=O)/C=C/c2cc(/C=N/c3nc(-c4ccc(OC)c(OC)c4)cs3)c(O)c(C(C)(C)C)c2)cc1 | > 89.8 µM |
| CCOC(=O)c1csc(/N=C/c2cc(/C=C/C(=O)c3cccs3)cc(C(C)C)c2O)n1 | > 110 µM |

----------
Listing of recorded MIC by entry.
Test system: Cryptococcus neoformans
Assay: Antifungal activity against Cryptococcus neoformans after 16 hrs by microtiter broth dilution method
Format: functional
measuredQuantity: MIC

| compound | measured |
| --- | --- |
| COc1ccc(-c2csc(/N=C/c3cc(/C=C/C(=O)c4ccc(C)cc4)cc(C(C)(C)C)c3O)n2)cc1 | > 97.9 µM |
| COc1ccc(C(=O)/C=C/c2cc(/C=N/c3nc(-c4ccc(OC)cc4)cs3)c(O)c(C(C)(C)C)c2)cc1 | > 94.9 µM |
| C[C@@H]1[C@H](O)[C@@H](C)/C=C/C=C/C=C/C=C/C=C/C=C/C=C/[C@H](O[C@@H]2O[C@H](C)[C@@H](O)[C@H](N)[C@@H]2O)C[C@@H]2O[C@](O)(C[C@@H](O)C[C@@H](O)[C@H](O)CC[C@@H](O)C[C@@H](O)CC(=O)O[C@H]1C)C[C@H](O)[C@H]2C(=O)O [AMPHOTERICIN B] | 0.1 µM |

----------
System: Staphylococcus aureus
Assay: Antibacterial activity against Staphylococcus aureus ATCC 25923 after 16 hrs by microtiter broth dilution method
Assay type: functional
Settings: ATCC 25923, 16 h

| testSmiles | relation | MIC, µM |
| --- | --- | --- |
| CCOC(=O)c1csc(/N=C/c2cc(/C=C/C(=O)c3cccs3)cc(C(C)C)c2O)n1 | = | 27.5 |
| COc1ccc(C(=O)/C=C/c2cc(/C=N/c3nc(-c4ccc(OC)c(OC)c4)cs3)c(O)c(C(C)(C)C)c2)cc1 | = | 11.2 |
| CCOC(=O)c1csc(/N=C/c2cc(/C=C/C(=O)c3ccc(OC)cc3)cc(C(C)(C)C)c2O)n1 | = | 12.7 |
| CCOC(=O)c1csc(/N=C/c2cc(/C=C/C(=O)c3ccc(C)cc3)cc(C(C)C)c2O)n1 | = | 27 |
| C[C@@H]1[C@H](O)[C@@H](C)/C=C/C=C/C=C/C=C/C=C/C=C/C=C/[C@H](O[C@@H]2O[C@H](C)[C@@H](O)[C@H](N)[C@@H]2O)C[C@@H]2O[C@](O)(C[C@@H](O)C[C@@H](O)[C@H](O)CC[C@@H](O)C[C@@H](O)CC(=O)O[C@H]1C)C[C@H](O)[C@H]2C(=O)O | > | 54.1 |
| CCOC(=O)c1csc(/N=C/c2cc(/C=C/C(=O)c3cccs3)cc(C(C)(C)C)c2O)n1 | = | 13.3 |
| OC(Cn1cncn1)(Cn1cncn1)c1ccc(F)cc1F | > | 34.5 |

----------
System: Staphylococcus aureus
Assay: Antibacterial activity against Staphylococcus aureus ATCC 25923 after 16 hrs by microtiter broth dilution method
Assay type: functional
Details: ATCC 25923, 16 h
measuredQuantity: MIC (µM)

| testSmiles | measured |
| --- | --- |
| CCOC(=O)c1csc(/N=C/c2cc(/C=C/C(=O)c3ccc(C)cc3)cc(C(C)(C)C)c2O)n1 | 6.5 |
| COc1ccc(C(=O)/C=C/c2cc(/C=N/c3nc(-c4ccc(OC)cc4)cs3)c(O)c(C(C)(C)C)c2)cc1 | 11.9 |
| CCn1cc(C(=O)O)c(=O)c2cc(F)c(N3CCNCC3)cc21 | 0.5 |
| CCOC(=O)c1csc(/N=C/c2cc(/C=C/C(=O)c3ccc(OC)cc3)cc(C(C)C)c2O)n1 | 26.1 |

----------
System: Escherichia coli
Experiment: Antibacterial activity against Escherichia coli ATCC 9637 after 16 hrs by microtiter broth dilution method
Assay type: functional
Conditions: W
measuredQuantity: MIC

| testSmiles | measured |
| --- | --- |
| COc1ccc(-c2csc(/N=C/c3cc(/C=C/C(=O)c4cccs4)cc(C(C)(C)C)c3O)n2)cc1OC | > 93.9 µM |
| CCOC(=O)c1csc(/N=C/c2cc(/C=C/C(=O)c3ccc(C)cc3)cc(C(C)C)c2O)n1 | > 108 µM |
| CCOC(=O)c1csc(/N=C/c2cc(/C=C/C(=O)c3ccc(OC)cc3)cc(C(C)C)c2O)n1 | > 104 µM |
| C[C@@H]1[C@H](O)[C@@H](C)/C=C/C=C/C=C/C=C/C=C/C=C/C=C/[C@H](O[C@@H]2O[C@H](C)[C@@H](O)[C@H](N)[C@@H]2O)C[C@@H]2O[C@](O)(C[C@@H](O)C[C@@H](O)[C@H](O)CC[C@@H](O)C[C@@H](O)CC(=O)O[C@H]1C)C[C@H](O)[C@H]2C(=O)O | > 54.1 µM |
